Target: hNAAA (Homo sapiens)
Construct: the active mature form of the enzyme is a heterodimer, consisting of a non-covalent complex of the α- and β-subunits; hexa-histidine (C); made in house; host or cells: HEK293 (stably transfected)
Test: 8 point radioactive assay, hydrolysis of [14C]N-palmitoylethanolamine by purified hNAAA
Assay type: biochemical
Details: 2 hours preincubation, PEA 25 µM
property: IC50 (nM)
Give bare numbers, in nM.

Worked set:
O=C(N[C@H]1COC1=O)OCc1ccccc1 [N-Cbz-serine β-lactone, N-Benzyloxycarbonyl-L-serine β-lactone, reference compound] : 1900
CCCCCCCCCCCCCCCN=C=S [AM9023, 1-isothiocyanatopentadecane] : 600

# next molecule below
Prompt line: I have this molecule here, CN(C)C(=O)n1nnc(Cc2ccc(-c3ccccc3)cc2)n1 [AM6701] , and I need its recorded IC50.
Response line: 7.2

###

Would you kindly list IC50 for each of these compounds?
Molecular target: hNAAA (Homo sapiens, UniProt Q02083)
Construct: the active mature form of the enzyme is a heterodimer, consisting of a non-covalent complex of the α- and β-subunits; hexa-histidine (C); made in house; host or cells: HEK293 (stably transfected)
Sequence (Q02083 126-359 limits assumed): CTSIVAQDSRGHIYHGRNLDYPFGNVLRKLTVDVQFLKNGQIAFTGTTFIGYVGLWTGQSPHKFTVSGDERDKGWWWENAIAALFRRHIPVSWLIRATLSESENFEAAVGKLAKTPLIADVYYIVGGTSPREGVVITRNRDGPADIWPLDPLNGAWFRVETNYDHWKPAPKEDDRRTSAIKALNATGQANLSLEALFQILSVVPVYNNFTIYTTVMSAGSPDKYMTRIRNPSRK
Sequence (Q02083 29-125 limits assumed): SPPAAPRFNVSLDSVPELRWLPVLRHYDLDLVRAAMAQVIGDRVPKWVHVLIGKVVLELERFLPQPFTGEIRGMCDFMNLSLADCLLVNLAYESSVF
Assay: 8 point fluorescent assay, hydrolysis of PAMCA by purified hNAAA
Type: biochemical
Conditions: purified hNAAA, 2 hours preincubation, fluorescent assay, PAMCA 10 µM
Numbers only, in nM.

Worked set:
O=C(N[C@H]1COC1=O)OCc1ccccc1 [N-Cbz-serine β-lactone, N-Benzyloxycarbonyl-L-serine β-lactone, reference compound] : 1700
CN(C)C(=O)n1nnc(Cc2ccc(-c3ccccc3)cc2)n1 : 7.7

# next compound below
Prompt line: I have this compound here, CCCCCCCCCCCCCCCN=C=S , and I need its recorded IC50.
Response line: 350

###

Molecular target: rFAAH (Rattus norvegicus, UniProt P97612)
Sequence (P97612 whole entry): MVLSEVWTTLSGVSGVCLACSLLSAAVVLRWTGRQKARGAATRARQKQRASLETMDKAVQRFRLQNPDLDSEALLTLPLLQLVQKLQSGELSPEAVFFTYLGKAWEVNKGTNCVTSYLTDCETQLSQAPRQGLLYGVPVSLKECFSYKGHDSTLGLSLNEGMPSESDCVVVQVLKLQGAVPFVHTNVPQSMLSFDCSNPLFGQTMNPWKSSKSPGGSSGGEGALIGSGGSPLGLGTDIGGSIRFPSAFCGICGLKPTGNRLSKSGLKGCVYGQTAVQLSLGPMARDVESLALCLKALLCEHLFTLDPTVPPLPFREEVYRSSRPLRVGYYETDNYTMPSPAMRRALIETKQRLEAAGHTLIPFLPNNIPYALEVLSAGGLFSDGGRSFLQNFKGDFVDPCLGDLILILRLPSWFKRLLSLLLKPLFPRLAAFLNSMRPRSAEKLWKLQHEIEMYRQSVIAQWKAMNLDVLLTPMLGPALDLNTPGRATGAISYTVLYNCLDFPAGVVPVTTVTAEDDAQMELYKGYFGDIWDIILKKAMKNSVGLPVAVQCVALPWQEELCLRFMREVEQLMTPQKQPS
pIC50: −log10 of the molar value.
property: pIC50

Prompt line: I have this compound here, CCCCCCCCCCCCCCCN=C=S , and I need its recorded pIC50.
Response line: < 5.00
